B1: TRIM55 (parent)
chain: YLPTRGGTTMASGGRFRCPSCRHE

Variants of: B1
Assay: protein stability index of a GFP-peptide fusion (GPS, HEK-293T) (PSI 1-6); higher = more stable;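 also: lentivirally expressed fusions sorted by FACS into six bins by GFP to DsRed ratio, PSI derived from sequencing read proportions per bin multiplied by bin number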
Conditions: c terminus: a fixed tail appended
So basically: protein stability index at 2 or higher? That is TRUE. Lower than 2? That is FALSE.

Worked set:
| VARIANT_KEY | ASSIGNED_CATEGORY |
| --- | --- |
| G7T | TRUE |
| T8Y | TRUE |
| C18Y | TRUE |
| Y1C | TRUE |
| R17L | TRUE |
| G6P | FALSE |
| A11K | FALSE |
| R22Q | TRUE |
| S12I | TRUE |
| S12C | FALSE |

-- ask Does the variant `T8L` have recorded protein stability index that is 2 or more?
-- reply TRUE

-- ask Does the variant `H23C` have recorded protein stability index that is 2 or more?
-- reply TRUE

-- ask Does the variant `C18T` have recorded protein stability index that is 2 or more?
-- reply TRUE

-- ask Does the variant `P19N` have recorded protein stability index that is 2 or more?
-- reply TRUE

-- ask Does the variant `P3I` have recorded protein stability index that is 2 or more?
-- reply FALSE

-- ask Does the variant `H23M` have recorded protein stability index that is 2 or more?
-- reply FALSE
